# target_system: Mitogen-activated protein kinase 7 (Homo sapiens)
# method_notes: Gal4-ERK5 driven luciferase induction – cell-based, HTS, primary screen (AID 1508626);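 also: luciferase driven by Gal4-ERK5 fusion binding five Gal4 sites before minimal TATA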
# condition_summary: HeLa Gal4-ERK5 transactivation, 18 h, at 5 µM
The source made the active and inactive calls.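 The calls were made as follows: active = luciferase signal above three times the same-plate solvent-only control wells; inactive = the rest.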
Labels: True = active, False = inactive

>>> class("O=C(O)CCCC[C@@H]1SC[C@@H]2NC(=O)N[C@@H]21")
"False"
>>> class("O=C1OCCN1/N=C/c1ccc([N+](=O)[O-])o1")
"False"
>>> class("CCOC(=O)NNc1nncc2ccccc12")
"False"
>>> class("CNC[C@H](O)c1ccc(O)c(O)c1")
"False"
>>> class("COc1ccnc(CS(=O)c2nc3ccc(OC(F)F)cc3[nH]2)c1OC (stereo unspecified)")
"False"
>>> class("Cc1nc2sccn2c(=O)c1CCN1CCC(=C(c2ccc(F)cc2)c2ccc(F)cc2)CC1")
"True"
>>> class("CC1(C)O[C@@H]2C[C@H]3[C@@H]4C[C@H](F)C5=CC(=O)C=C[C@]5(C)[C@@]4(F)[C@@H](O)C[C@]3(C)[C@]2(C(=O)CO)O1")
"False"
>>> class("CS(=O)(=O)c1ccc([C@@H](O)[C@@H](CO)NC(=O)C(Cl)Cl)cc1")
"False"
>>> class("CCCCc1nc(Cl)c(CO)n1Cc1ccc(-c2ccccc2-c2nn[nH]n2)cc1")
"False"
>>> class("COc1ccc(C2C(=O)c3ccccc3C2=O)cc1")
"False"
>>> class("C[C@]12CC[C@@H]3c4ccc(O)cc4CC[C@H]3[C@@H]1C[C@@H](O)[C@@H]2O")
"False"
>>> class("C[N+]12CCC(CC1)C(OC(=O)C(O)(c1ccccc1)c1ccccc1)C2 (stereo unspecified)")
"False"
>>> class("CC(NCCC(c1ccccc1)c1ccccc1)c1ccccc1 (stereo unspecified)")
"False"
>>> class("CCCCN(CCCC)CCCOC(=O)c1ccc(N)cc1")
"False"
>>> class("CCCOc1ccc2nc(NC(=O)OC)[nH]c2c1")
"False"
>>> class("Nc1ncnc2nc[nH]c12")
"False"
>>> class("Cc1cc(=O)n(-c2ccccc2)n1C")
"False"
>>> class("CCC(=O)c1c(O)cc(O)cc1O")
"False"
>>> class("CC1(C)NC(=O)N(c2ccc([N+](=O)[O-])c(C(F)(F)F)c2)C1=O")
"False"
>>> class("CCOc1ccc(Cc2nccc3cc(OCC)c(OCC)cc23)cc1OCC")
"False"
>>> class("Cc1ccsc1/C=C/C1=NCCCN1C")
"False"

====

# method_notes: JHH-DIPG-1 glioma cell viability, MIPE5.0 library, CellTiter-Glo luminescence, qHTS (AID 1347067);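 also: cells exposed to compound for 48 hours before readout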
# condition_summary: JHH-DIPG-1 glioma viability, CellTiter-Glo ATP luminescence
Inconclusive results are not listed. Activity calls are given as the source filed them. The limit is not given here; nearly all actives have AC50 up to about 26 µM.
Labels: active, inactive

>>> class("O=C(Nc1ccc([N+](=O)[O-])cc1Cl)c1cc(Cl)ccc1O")
"active"
>>> class("Clc1ccc2nsnc2c1NC1=NCCN1")
"inactive"
>>> class("Cc1nc(-c2ccc(OCC(C)C)c(C#N)c2)sc1C(=O)O")
"inactive"
>>> class("COc1ccc(C(=O)CC(=O)c2ccc(C(C)(C)C)cc2)cc1")
"inactive"
>>> class("O=c1c(O)c(-c2ccc(O)c(O)c2)oc2cc(O)cc(O)c12")
"inactive"
>>> class("CNNCc1ccc(C(=O)NC(C)C)cc1")
"inactive"
>>> class("COc1ccc2cc3[n+](cc2c1OC)CCc1cc2c(cc1-3)OCO2")
"active"
>>> class("COCCCOc1cc(C[C@@H](C[C@H](N)[C@@H](O)C[C@H](C(=O)NCC(C)(C)C(N)=O)C(C)C)C(C)C)ccc1OC")
"inactive"
>>> class("COc1ccccc1OCC(O)CN1CCN(CC(=O)Nc2c(C)cccc2C)CC1 (stereo not drawn)")
"inactive"
>>> class("COc1cc2c(N3CCN(C(=O)Nc4ccc(OC(C)C)cc4)CC3)ncnc2cc1OCCCN1CCCCC1")
"inactive"
>>> class("O=NN(CCCl)C(=O)NCCCl")
"inactive"
>>> class("NCC1CCC(C(=O)O)CC1 (stereo not drawn)")
"inactive"
>>> class("C[C@H]1O[C@@H](n2cc(F)c(=O)[nH]c2=O)[C@H](O)[C@@H]1O")
"inactive"

====

# method_notes: growth inhibition of GSK3B-pretreated HCT116 cells – cell-based, CellTiter-Glo, 0.2 to 20 µM (AID 1117336)
# condition_summary: HCT116 viability after GSK3B inhibitor, at 20 µM, stronger effect = higher value
Calls of active or inactive are those of the source.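 Rule for the calls: active = compounds lowering colon cancer cell viability after pretreatment blocking the GSK3B kinase; inactive = the rest.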
viability decrease listing for selected molecules.
measure_name: viability decrease

>>> measurement("O=c1c(-c2ccc(O)cc2)coc2cc(O)cc(O)c12")
"36.1% (inactive)"
>>> measurement("Nc1ncnc2nc[nH]c12")
"-4.6% (inactive)"
>>> measurement("COc1ccc(C(=O)NCc2ccc(OCCN(C)C)cc2)cc1OC")
"-2.9% (inactive)"
>>> measurement("NC(N)=NCCN1CCCCCCC1")
"1.25% (inactive)"

====

# method_notes: stimulators of insulin release from INS-1E, primary screen, cell-based, 5 mM glucose, NPC library (AID 1117329)
# condition_summary: rat INS-1E insulin secretion, at 10 µM, stronger effect = higher value
measure_name: insulin secretion stimulation (%)

>>> measurement("CC(C(=O)O)c1ccc(C(=O)c2cccs2)cc1 (stereo unspecified)")
1.8
>>> measurement("C[N+](C)(C)CCCCCC[N+](C)(C)C")
0.75
>>> measurement("C#C[C@]1(O)CC[C@H]2[C@@H]3[C@H](C)CC4=C(CCC(=O)C4)[C@H]3CC[C@@]21C")
-2.8
>>> measurement("CCn1cc(C(=O)O)c(=O)c2cnc(N3CCCC3)nc21")
-0.4
>>> measurement("CO[C@@H]1[C@@H](OC(N)=O)[C@@H](O)[C@H](Oc2ccc3c(O)c(NC(=O)c4ccc(O)c(CC=C(C)C)c4)c(=O)oc3c2C)OC1(C)C")
-0.3
>>> measurement("CCn1cc(C(=O)O)c(=O)c2cc(F)c(N3CCNC(C)C3)c(F)c21 (stereo unspecified)")
1.7
>>> measurement("Nc1nccs1")
-0.1
>>> measurement("COC(=O)N/N=C/c1c[n+]([O-])c2ccccc2[n+]1[O-]")
1.9
>>> measurement("Cc1nnc(SCC2=C(C(=O)O)N3C(=O)[C@@H](NC(=O)Cn4cnnn4)[C@H]3SC2)s1")
-1.7
>>> measurement("O=C(O)c1cc(=O)c2ccccc2o1")
-2.1
>>> measurement("NS(=O)(=O)c1cc(C(=O)O)c(NCc2ccco2)cc1Cl")
-2
>>> measurement("OCc1ccccc1O")
-0.1
>>> measurement("Cc1ccnc(NS(=O)(=O)c2ccc(N)cc2)n1")
-0.3
>>> measurement("O=C1NCC2(CCN(CCc3ccccc3)CC2)O1")
-0.9
>>> measurement("CCCCCCOc1ccccc1C(N)=O")
-0.6
>>> measurement("CCCCc1nc(Cl)c(CO)n1Cc1ccc(-c2ccccc2-c2nn[nH]n2)cc1")
0.1
>>> measurement("Cc1cccc(N(C)C(=S)Oc2ccc3ccccc3c2)c1")
0.4
>>> measurement("Cc1c(C(=O)O)c(O)cc2c1C(=O)c1c(O)c([C@@H]3O[C@H](CO)[C@@H](O)[C@H](O)[C@H]3O)c(O)c(O)c1C2=O")
4.4
>>> measurement("Cc1c(C(N)=O)cc([N+](=O)[O-])cc1[N+](=O)[O-]")
-3.2
>>> measurement("COc1cc2nc(N3CCN(C(=O)C4COc5ccccc5O4)CC3)nc(N)c2cc1OC (stereo unspecified)")
-0.7
>>> measurement("COc1ccc(C(=O)CC(=O)c2ccc(C(C)(C)C)cc2)cc1")
1.3
>>> measurement("COc1ncnc(NS(=O)(=O)c2ccc(N)cc2)c1OC")
0.1
>>> measurement("CC[C@]12CCCN3CCc4c(n(c5ccccc45)C(=O)C1)[C@@H]32")
0.1
>>> measurement("C[N+]12CCC(CC1)C(OC(=O)C(O)(c1ccccc1)c1ccccc1)C2 (stereo unspecified)")
-0.3
>>> measurement("Oc1ccc(Cl)c2cccnc12")
-2.1
>>> measurement("COc1ccccc1OCC(O)CO (stereo unspecified)")
-0.3
>>> measurement("Cc1c[nH]c2ccccc12")
-2.3
>>> measurement("Nc1c2ccccc2nc2ccccc12")
39.7
>>> measurement("CC[N+](C)(CC)CCOC(=O)C(O)(c1ccccc1)C1CCCCC1 (stereo unspecified)")
-1.5
>>> measurement("O=C(O)P(=O)(O)O")
0.5
>>> measurement("CC(=O)O[C@]1(C(C)=O)CC[C@H]2[C@@H]3C=C(Cl)C4=CC(=O)CC[C@]4(C)[C@H]3CC[C@@]21C")
0
